biological target: UniProt Q9Y5N1; experiment: Binding affinity to human H3R
ASSAY_METRIC: pKi
Reminder that pKi is minus the log10 of a molar concentration.

smiles_text=CN(C)[C@@H]1CCN(CCCOc2ccc(-c3ccc(C#N)cc3)cc2)C1 assay_metric=pKi data_value=8.70

Here is the next item to consider.
Data request: Endpoint output: pKi of CN(C)[C@@H]1CCN(CCCOc2ccc(-c3ccc(C#N)cc3)cc2F)C1 . Value?
Data returned: 8.40

###

Recorded pKi values for a group of compounds are listed next.
molecular target: Histamine H1 receptor (Homo sapiens, UniProt P35367)
Sequence (P35367 whole entry): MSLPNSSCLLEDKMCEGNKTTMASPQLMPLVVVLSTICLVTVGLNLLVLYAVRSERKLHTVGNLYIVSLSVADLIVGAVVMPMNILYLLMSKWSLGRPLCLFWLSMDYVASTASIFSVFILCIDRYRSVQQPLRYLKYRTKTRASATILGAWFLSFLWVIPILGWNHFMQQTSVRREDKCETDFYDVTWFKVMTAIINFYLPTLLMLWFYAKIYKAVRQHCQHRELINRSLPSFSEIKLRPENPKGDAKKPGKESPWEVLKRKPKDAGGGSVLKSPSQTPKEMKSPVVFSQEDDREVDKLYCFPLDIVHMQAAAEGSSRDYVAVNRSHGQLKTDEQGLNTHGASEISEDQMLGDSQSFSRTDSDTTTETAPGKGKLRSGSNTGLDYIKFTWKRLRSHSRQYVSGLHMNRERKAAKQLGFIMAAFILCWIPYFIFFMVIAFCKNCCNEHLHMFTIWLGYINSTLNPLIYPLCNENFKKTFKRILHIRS
Reminder that pKi is minus the log10 of a molar concentration.

See these solved cases before continuing.
smiles_text=Fc1ccc(-c2ccc(OCCCN3CCN(c4ccncc4)CC3)cc2)cc1 target_entity="Histamine H1 receptor (Homo sapiens, UniProt P35367)" data_value=5.43
smiles_text=O=C(c1ccc(Cl)cc1)c1ccc(OCCCN2CCN(c3ccncc3)CC2)cc1 target_entity="Histamine H1 receptor (Homo sapiens, UniProt P35367)" data_value=5.16

Data request: Form field: pKi recorded for N#Cc1ccc(-c2ccc(OCCCN3CCN(c4ccncc4)CC3)cc2)cc1 with Histamine H1 receptor (Homo sapiens, UniProt P35367) (enter value)
Data returned: 5.54

Data request: Form field: pKi recorded for c1ccc(Cc2ccc(OCCCN3CCN(c4ccncc4)CC3)cc2)cc1 with Histamine H1 receptor (Homo sapiens, UniProt P35367) (enter value)
Data returned: 5.37

Data request: Form field: pKi recorded for c1ccc(Oc2ccc(OCCCN3CCN(c4ccncc4)CC3)cc2)cc1 with Histamine H1 receptor (Homo sapiens, UniProt P35367) (enter value)
Data returned: 5.34

Data request: Form field: pKi recorded for Clc1ccc(-c2ccc(OCCCN3CCN(c4ccncc4)CC3)cc2)cc1 with Histamine H1 receptor (Homo sapiens, UniProt P35367) (enter value)
Data returned: 5.39

###

Recorded pKi values for a group of compounds are listed next.
molecular target: Histamine H3 receptor (Homo sapiens); assay: Displacement of [3H]UR-PI294 from human SP-FLAG-tagged H3R expressed in HEK293T cells measured after 60 to 120 mins by liquid scintillation counting analysis; type: cell-based
Sequence (Q9Y5N1 whole entry): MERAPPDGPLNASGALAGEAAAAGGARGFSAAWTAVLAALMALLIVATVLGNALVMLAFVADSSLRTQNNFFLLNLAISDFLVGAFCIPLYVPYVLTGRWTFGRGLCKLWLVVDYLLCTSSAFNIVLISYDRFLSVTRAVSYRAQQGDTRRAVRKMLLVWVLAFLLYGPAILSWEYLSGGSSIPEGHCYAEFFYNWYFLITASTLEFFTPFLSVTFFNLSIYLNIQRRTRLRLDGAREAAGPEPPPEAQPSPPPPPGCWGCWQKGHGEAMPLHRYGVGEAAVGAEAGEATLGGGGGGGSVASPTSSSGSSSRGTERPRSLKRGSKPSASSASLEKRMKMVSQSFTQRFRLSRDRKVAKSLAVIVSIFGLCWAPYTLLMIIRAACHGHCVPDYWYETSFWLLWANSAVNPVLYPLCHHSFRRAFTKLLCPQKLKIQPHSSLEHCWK
Reminder that pKi is minus the log10 of a molar concentration.

See these solved cases before continuing.
smiles_text=c1ccc(Oc2ccc(OCCCN3CCN(c4ccncc4)CC3)cc2)cc1 target_entity="Histamine H3 receptor (Homo sapiens)" assay_metric=pKi data_value=7.69
smiles_text=c1ccc(Nc2ccc(OCCCN3CCN(c4ccncc4)CC3)cc2)cc1 target_entity="Histamine H3 receptor (Homo sapiens)" assay_metric=pKi data_value=8.07
smiles_text=c1ccc(Cc2ccc(OCCCN3CCN(c4ccncc4)CC3)cc2)cc1 target_entity="Histamine H3 receptor (Homo sapiens)" assay_metric=pKi data_value=7.75
smiles_text=O=C(c1ccc(Cl)cc1)c1ccc(OCCCN2CCN(c3ccncc3)CC2)cc1 target_entity="Histamine H3 receptor (Homo sapiens)" assay_metric=pKi data_value=7.64

Data request: Endpoint output: pKi of N#Cc1ccc(-c2ccc(OCCCN3CCN(c4ccncc4)CC3)cc2)cc1 . Value?
Data returned: 8.10

Data request: Endpoint output: pKi of O=C(c1ccc(OCCCN2CCC(c3ccncc3)CC2)cc1)C1CC1 . Value?
Data returned: 8.11

Data request: Endpoint output: pKi of Fc1ccc(-c2ccc(OCCCN3CCN(c4ccncc4)CC3)cc2)cc1 . Value?
Data returned: 7.22

Data request: Endpoint output: pKi of Clc1ccc(-c2ccc(OCCCN3CCN(c4ccncc4)CC3)cc2)cc1 . Value?
Data returned: 6.85

Data request: Endpoint output: pKi of O=C(c1ccc(F)cc1)c1ccc(OCCCN2CCN(c3ccncc3)CC2)cc1 . Value?
Data returned: 8.23

Data request: Endpoint output: pKi of Clc1cccc(-c2ccc(OCCCN3CCN(c4ccncc4)CC3)cc2)c1 . Value?
Data returned: 6.96

Data request: Endpoint output: pKi of c1ccc2cc(OCCCN3CCN(c4ccncc4)CC3)ccc2c1 . Value?
Data returned: 7.17

Data request: Endpoint output: pKi of O=C(c1ccc(OCCCN2CCN(c3ccncc3)CC2)cc1)C1CC1 . Value?
Data returned: 8.50

###

target: Histamine H1 receptor (Homo sapiens, UniProt P35367)
pKi: −log10 of the molar value.
Recorded pKi values for a group of molecules are listed next.

See these solved cases before continuing.
smiles_text=O=C(c1ccc(OCCCN2CCN(c3ccncc3)CC2)cc1)C1CC1 data_value="< 5.00"
smiles_text=O=C(c1ccc(F)cc1)c1ccc(OCCCN2CCN(c3ccncc3)CC2)cc1 data_value="< 5.00"

Here is the next item to consider.
Data request: Form field: pKi recorded for O=C(c1ccc(OCCCN2CCC(c3ccncc3)CC2)cc1)C1CC1 with Histamine H1 receptor (Homo sapiens, UniProt P35367) (enter value)
Data returned: < 5.00
